# Test system: Saos-2 (Osteosarcoma)
# protocol summary: combination Emax (second highest fraction inhibited in the dose matrix, 72 h); higher = more inhibition; extreme values may be limits of the assay
readout type: combination Emax
Reply with just the number.

C[C@@H](Nc1cc(F)cc(F)c1)c1cc(C(=O)N(C)C)cc2c(=O)cc(N3CCOCC3)oc12 [AZD8186] + C1CN(CCC1(C(=O)N[C@@H](CCO)C2=CC=C(C=C2)Cl)N)C3=NC=NC4=C3C=CN4 [AZD5363] (first compound max 10 µM, 7x7, partner max 10 µM)
0.425

Read the next record carefully.
Exercise: Data request, read-out combination Emax, for CN(CCO)CC[C@H](CSc1ccccc1)Nc1ccc(S(=O)(=O)NC(=O)c2ccc(N3CCC([C@@H](O)c4ccccc4-c4ccc(Cl)cc4)CC3)cc2)cc1S(=O)(=O)C(F)(F)F [AZD4320] + C=CCn1c(=O)c2cnc(Nc3ccc(N4CCN(C)CC4)cc3)nc2n1-c1cccc(C(C)(C)O)n1 [AZD1775] (first compound max 1 µM, partner max 1 µM)
Solution: 0.707

###

# Test system: EW-22 (Ewing's Sarcoma)
# protocol summary: combination Emax (second highest fraction inhibited in the dose matrix, 72 h); higher = more inhibition; extreme values may be limits of the assay
readout type: combination Emax
Reply with just the number.

CN(C)CCCOc1ccc(-c2ccc3ncc4c(c3c2)n(C2CCOCC2)c(=O)n4C)cn1 [AZD0156] + O=C(c1cc(Cc2n[nH]c(=O)c3ccccc23)ccc1F)N1CCN(C(=O)C2CC2)CC1 [Olaparib] (first compound max 3 µM, partner max 3 µM)
0.872

Exercise: Data request, read-out combination Emax, for CN(CCO)CC[C@H](CSc1ccccc1)Nc1ccc(S(=O)(=O)NC(=O)c2ccc(N3CCC([C@@H](O)c4ccccc4-c4ccc(Cl)cc4)CC3)cc2)cc1S(=O)(=O)C(F)(F)F [AZD4320] + CN(C)CCCOc1ccc(-c2ccc3ncc4c(c3c2)n(C2CCOCC2)c(=O)n4C)cn1 [AZD0156] (first compound max 1 µM, 7x7, partner max 1 µM)
Solution: 0.897

Exercise: Item: COc1cccc(OCCCN)c1-c1cc(Nc2cnc(C#N)cn2)n[nH]1 [Prexasertib] + C[C@@H]1COCCN1C2=NC(=NC(=C2)C3(CC3)[S@](=N)(=O)C)C4=C5C=CNC5=NC=C4 [AZD6738] (first compound max 1 µM, 7x7, partner max 10 µM)
Solution: 0.888

###

Measured Bliss excess, listed per entry for reference.
# System: NCI-H1688 (Small Cell Lung Carcinoma);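 note: after 72 h of two-drug dosing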
# protocol summary: Bliss excess, mean over the matrix (fraction); higher = more synergy
Reply with just the number.

CC(=O)c1c(C)c2cnc(Nc3ccc(N4CCNCC4)cn3)nc2n(C2CCCC2)c1=O [Palbociclib] + CN(CC[C@H](CSC1=CC=CC=C1)NC2=C(C=C(C=C2)S(=O)(=O)NC(=O)C3=CC=C(C=C3)N4CCC(CC4)[C@H](C5=CC=CC=C5C6=CC=C(C=C6)Cl)O)S(=O)(=O)C(F)(F)F)CCO [AZD4320] (first compound max 10 µM, 7x7, partner max 1 µM)
-0.0438

Read the next record carefully.
Exercise: Data request, read-out Bliss excess, for NC1(C(=O)N[C@@H](CCO)c2ccc(Cl)cc2)CCN(c2ncnc3[nH]ccc23)CC1 [Capivasertib] + CC(=O)c1c(C)c2cnc(Nc3ccc(N4CCNCC4)cn3)nc2n(C2CCCC2)c1=O [Palbociclib] (first compound max 10 µM, 7x7, partner max 10 µM)
Solution: 0.017
